molecular target: T1, CD22 on cynomolgus monkey peripheral blood B cells (cynomolgus monkey (Macaca fascicularis)); test: FACS, cynomolgus PBMC, CD20+ B cells, antibody 10 nM
T1 construct: whole, on cells; also called cynomolgus monkey B cells
outcome measure: Proportion of chimeric antibody positive cells to B cells (%)
I only need the number, in %, no unit after it.

binder | measured number
F1.105.11 (antibody, human IgG1, kappa, V domains shown, human-murine chimeric IgG1 kappa; VL name legible) VH: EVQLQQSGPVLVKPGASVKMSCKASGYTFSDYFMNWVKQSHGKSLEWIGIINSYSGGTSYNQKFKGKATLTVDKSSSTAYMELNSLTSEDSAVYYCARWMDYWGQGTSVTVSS VL: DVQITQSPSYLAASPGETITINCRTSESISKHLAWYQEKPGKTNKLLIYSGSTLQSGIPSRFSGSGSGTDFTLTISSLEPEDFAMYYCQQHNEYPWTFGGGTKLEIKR | 59

Look up Proportion of chimeric antibody positive cells to B cells (%): F2.180.16 (antibody, human IgG1, lambda, V domains shown, human-murine chimeric IgG1 lambda) VH: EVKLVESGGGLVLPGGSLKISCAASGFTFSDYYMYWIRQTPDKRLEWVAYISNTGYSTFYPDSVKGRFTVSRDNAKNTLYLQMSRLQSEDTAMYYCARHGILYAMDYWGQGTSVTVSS VL: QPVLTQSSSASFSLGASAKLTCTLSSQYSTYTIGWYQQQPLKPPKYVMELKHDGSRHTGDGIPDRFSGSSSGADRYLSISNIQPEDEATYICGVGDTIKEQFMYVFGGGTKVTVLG
20
